B1: GA-binding protein alpha chain, residues 172 to 250; numbered along this chain, Q06546 (parent)
chain: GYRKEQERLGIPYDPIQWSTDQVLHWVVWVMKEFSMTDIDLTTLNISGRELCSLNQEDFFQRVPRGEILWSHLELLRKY

# Variants of: B1
# test_description: abundance fitness (aPCA) (normalised: wild type 0, dead -1); higher = more abundant; growth selection in yeast, the domain comes from the species named
# conditions_used: Homo sapiens
measurement_name: abundance fitness

>>> endpoint_value("E57D")
-0.063
>>> endpoint_value("T20H")
-0.047
>>> endpoint_value("F60L")
0.033
>>> endpoint_value("H25W")
-0.393
>>> endpoint_value("E5T")
-0.347
>>> endpoint_value("H25N")
-0.048
>>> endpoint_value("Y13Q")
-0.048
>>> endpoint_value("T20Y")
-0.529
>>> endpoint_value("Q22P")
-0.991
>>> endpoint_value("W18K")
-0.864
>>> endpoint_value("K4A")
-0.063
>>> endpoint_value("T42A")
-0.004
>>> endpoint_value("R62A")
-0.132
>>> endpoint_value("E57H")
-0.023
>>> endpoint_value("D58E")
-0.095
>>> endpoint_value("S19E")
-0.311
>>> endpoint_value("R8D")
-0.185
>>> endpoint_value("Q61P")
-0.777
>>> endpoint_value("V23I")
-0.794
>>> endpoint_value("F59S")
-0.626
>>> endpoint_value("L54M")
-0.009
>>> endpoint_value("I39Q")
-0.22
>>> endpoint_value("Q61D")
-0.155
>>> endpoint_value("E33T")
-0.084
>>> endpoint_value("W29D")
-0.57
>>> endpoint_value("T43R")
-0.027
>>> endpoint_value("Q22Y")
-0.763
>>> endpoint_value("R65D")
0.084
>>> endpoint_value("I39A")
-0.192
>>> endpoint_value("T42R")
-0.014
>>> endpoint_value("V63G")
-0.218
>>> endpoint_value("I39S")
-0.275
>>> endpoint_value("T20E")
0.039
>>> endpoint_value("D58H")
-0.149
>>> endpoint_value("W70A")
-0.748
>>> endpoint_value("L76H")
-0.317
>>> endpoint_value("I39R")
-0.281
>>> endpoint_value("E74I")
-0.302
>>> endpoint_value("H72T")
-0.38
>>> endpoint_value("L51A")
-0.982
>>> endpoint_value("M31Q")
0.059
>>> endpoint_value("W70H")
-0.494
>>> endpoint_value("H72K")
-0.282
>>> endpoint_value("R49M")
0.042
>>> endpoint_value("L51G")
-0.92
>>> endpoint_value("K4E")
-0.072
>>> endpoint_value("I16K")
-0.025
>>> endpoint_value("D14S")
-0.205
>>> endpoint_value("L75W")
-0.104
>>> endpoint_value("N45L")
-0.195
>>> endpoint_value("K78P")
-0.195
>>> endpoint_value("Q17W")
-0.08
>>> endpoint_value("M31C")
0.069
>>> endpoint_value("R77D")
-0.382
>>> endpoint_value("M31R")
-0.155
>>> endpoint_value("V23Q")
-0.9
>>> endpoint_value("L69A")
-0.311
>>> endpoint_value("Y79P")
0.009
>>> endpoint_value("G66K")
-0.728
>>> endpoint_value("D38V")
-0.364
>>> endpoint_value("P12D")
-0.34
>>> endpoint_value("R65N")
-0.07
>>> endpoint_value("S19K")
-0.281
>>> endpoint_value("V23C")
-0.53
>>> endpoint_value("G1S")
-0.135
>>> endpoint_value("W18R")
-0.905
>>> endpoint_value("K4Q")
-0.106
>>> endpoint_value("S71G")
-0.01
>>> endpoint_value("M36H")
-0.193
>>> endpoint_value("Y79N")
0.107
>>> endpoint_value("E57I")
-0.153
>>> endpoint_value("E57K")
-0.122
>>> endpoint_value("K4D")
-0.104
>>> endpoint_value("L54Q")
-0.446
>>> endpoint_value("L54H")
-0.486
>>> endpoint_value("S71Y")
-0.027
>>> endpoint_value("E67Q")
-0.121
>>> endpoint_value("E33D")
0.021
>>> endpoint_value("R62S")
-0.156
>>> endpoint_value("D21F")
-0.391
>>> endpoint_value("E67M")
-0.147
>>> endpoint_value("W29L")
-0.815
>>> endpoint_value("P12Y")
-0.707
>>> endpoint_value("I46S")
-1
>>> endpoint_value("K32L")
-0.443
>>> endpoint_value("R49D")
-0.1
>>> endpoint_value("I11Q")
-1.01
>>> endpoint_value("L73V")
-0.376
>>> endpoint_value("L24P")
-1
>>> endpoint_value("E50R")
-0.249
>>> endpoint_value("D14W")
-0.651
